Study target: T1, Avi-tag Fc with human IL-2R beta and IL-2R gamma attached (Acrobiosystems ACRB-ILG-H82F3-25UG) (human, UniProt P14784 27-239; P31785 23-262)
T1 construct: Bought; attached to the SAX2 biosensor; also called CD122 CD132; IL-2R βγ; not shown: Fc and Avi-tag
T1 sequence (looked up) 1: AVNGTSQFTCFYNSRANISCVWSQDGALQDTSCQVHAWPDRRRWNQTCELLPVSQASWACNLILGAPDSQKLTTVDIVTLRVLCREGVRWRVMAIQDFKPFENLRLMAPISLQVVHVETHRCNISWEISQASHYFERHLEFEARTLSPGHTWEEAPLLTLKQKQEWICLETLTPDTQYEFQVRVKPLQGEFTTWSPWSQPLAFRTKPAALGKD
T1 sequence (looked up) 2: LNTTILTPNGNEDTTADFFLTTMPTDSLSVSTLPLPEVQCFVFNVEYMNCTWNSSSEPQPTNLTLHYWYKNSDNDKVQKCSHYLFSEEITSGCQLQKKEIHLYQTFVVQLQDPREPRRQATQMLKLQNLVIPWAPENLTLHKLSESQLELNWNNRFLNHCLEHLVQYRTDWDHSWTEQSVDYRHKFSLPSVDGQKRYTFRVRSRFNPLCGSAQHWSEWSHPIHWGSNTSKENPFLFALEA
Experiment summary: BLI (Octet R8), receptor on SAX2 sensor
Bridges are numbered along the chain shown (N, C = ends). Primed or numbered codes have the meaning given here. [ ]: non-standard residue; d: D form. Ygp = O-(8x polyethylene glycol-amino)-tyrosine (Tyr, amino-capped PEG8); Yn3 = O-(9x polyethylene glycol-azido)-tyrosine (Tyr, azide-capped PEG9); Ygp″ = O-(8x polyethylene glycol-amino)-tyrosine; Yn3″ = O-(9x polyethylene glycol-azido)-tyrosine; Ygp(3) = O-(PEG8-amino)-tyrosine; Yn3(3) = O-(PEG9-azido)-tyrosine; PEG4′ = 4x polyethylene glycol; PEG9′ = 9x polyethylene glycol; hSer = N[C@@H](CCO)C(=O)O; Nle = CCCC[C@H](N)C(=O)O
// kon lookup, one value per entry
API: value field is a number in M⁻¹ s⁻¹; no unit string.

Binder	Outcome measure	Units symbol	Numeric value
CMP-319 (ligand, lactam N-33; ends not checked) RGRRVANLVGAPTSSSTKKTQLQLEHLLLDLQEILNGINNYKNPKLTR[Nle]L[hSer][Yn3]KF[Ygp][Nle]PKKATELKHLQCLEEELKPLEEVL[hSer]LAQSKNFHLRPRDLISNINVIVLELKGSETTF[hSer]CEYADETATIVEFLNRWITFSQSIISTLT	kon	M⁻¹ s⁻¹	85500
CMP-168, MMP2 cleaved (ligand, ends and bridges not checked; also: MMP2 cleaved, ring opened, cut site and remnants not given here, Tested after MMP2 treatment) APTSSSTKKTQLQLEHLLLDLQEILNGINNYKNPKLTR[Nle]L[hSer][Yn3″]KF[Ygp″][Nle]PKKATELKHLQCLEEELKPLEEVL[hSer]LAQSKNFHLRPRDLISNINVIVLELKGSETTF[hSer]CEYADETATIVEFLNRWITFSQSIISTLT	kon	M⁻¹ s⁻¹	602000
CMP-165, MMP2 cleaved (ligand, also: glutaryl-peptide bridge Ala1 to Lys23 cut by MMP2, site not given here, ring opened, Tested after MMP2 treatment) APTSSSTKKTQLQLEHLLLDLQKILNGINNYKNPKLTR[Nle]L[hSer][Yn3]KF[Ygp][Nle]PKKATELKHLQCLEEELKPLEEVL[hSer]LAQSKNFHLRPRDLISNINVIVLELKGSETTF[hSer]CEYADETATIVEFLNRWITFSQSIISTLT	kon	M⁻¹ s⁻¹	608000
CMP-167, MMP2 cleaved (ligand, ends and bridges not checked; also: MMP2 cleaved, ring opened, cut site and remnants not given here, Tested after MMP2 treatment) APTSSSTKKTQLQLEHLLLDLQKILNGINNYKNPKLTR[Nle]L[hSer][Yn3″]KF[Ygp″][Nle]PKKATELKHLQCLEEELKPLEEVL[hSer]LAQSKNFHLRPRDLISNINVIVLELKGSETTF[hSer]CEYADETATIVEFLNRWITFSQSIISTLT	kon	M⁻¹ s⁻¹	594000
CMP-138 (ligand, bridge (positions not given here); not fully specified (bridges); numbers in words are those of the source; also: Cys58-Cys105 disulfide expected from oxidative folding) [PEG4′]SGGPGPAGMKGLPGS[PEG4′]APTSSSTKKTQLQLEHLLLDLQ[Nle]ILNGIENYKNPKLTR[Nle]L[hSer][Yn3(3)]KF[Ygp(3)][Nle]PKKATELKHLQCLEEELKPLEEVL[hSer]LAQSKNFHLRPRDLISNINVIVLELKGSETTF[hSer]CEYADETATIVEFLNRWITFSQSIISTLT	kon	M⁻¹ s⁻¹	232000

Now take the following binder into account.
Request: Please give the documented kon of CMP-136 (ligand, bridge N-37; not fully specified (bridges)) [PEG9′]PLGLAG[PEG9′]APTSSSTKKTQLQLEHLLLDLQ[Nle]ILNGIENYKNPKLTR[Nle]L[hSer][Yn3]KF[Ygp][Nle]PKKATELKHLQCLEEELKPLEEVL[hSer]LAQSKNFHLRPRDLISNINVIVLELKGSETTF[hSer]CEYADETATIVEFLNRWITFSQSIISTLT
Result: 396000

Reference source: patent US20240376170A1
